These measurements were taken from PubChem BioAssay AID1195.

Field: maximum recommended daily dose (mmol/kg-bw/day). Provide a value for each of the compounds that follow.
Test system: human maximum recommended daily dose, FDA database
Assay: DSSTox (FDAMDD) FDA Maximum (Recommended) Daily Dose Database
Conditions: TherapeuticCategory: antibacterial; stronger effect = lower value
Source text: The Food and Drug Administration (FDA) Center for Drug Evaluation and Research, Office of Pharmaceutical Science, Informatics and Computational Safety Analysis Staff's Maximum Recommended Daily Dose (FDAMDD) database contains values for over 1200 pharmaceuticals listed in Martindale: The Extra Pharmacopoeia (1973, 1983, and 1993) and The Physicians' Desk Reference (1995 and 1999). […]
# answer = number (no unit)

Which maximum recommended daily dose (mmol/kg-bw/day) is reported for this compound? CCC[C@@H]1C[C@@H](C(=O)N[C@@H]([C@H]2O[C@H](SC)[C@H](O)[C@@H](O)[C@H]2O)[C@@H](C)O)N(C)C1
0.0819

Which maximum recommended daily dose (mmol/kg-bw/day) is reported for this compound? CN[C@@H]1[C@@H](O)[C@@H](O[C@@H]2[C@@H](O)[C@H](O[C@H]3O[C@H](C(C)N)CC[C@H]3N)[C@@H](N)C[C@H]2N)OC[C@]1(C)O (some centres undefined)
0.00647

Which maximum recommended daily dose (mmol/kg-bw/day) is reported for this compound? CC(=O)OCC1=C(C(=O)O)N2C(=O)[C@@H](NC(=O)[C@H](N)c3ccccc3)[C@H]2SC1
0.0821

Which maximum recommended daily dose (mmol/kg-bw/day) is reported for this compound? CN[C@@H]1[C@H](O[C@H]2[C@H](O[C@H]3[C@H](O)[C@@H](O)[C@H](N=C(N)N)[C@@H](O)[C@@H]3N=C(N)N)O[C@@H](C)[C@]2(O)C=O)O[C@@H](CO)[C@H](O)[C@H]1O
0.0344
